Measured folding stability dG of individual entries
B1: EHEE_rd2_0196 (parent)
chain: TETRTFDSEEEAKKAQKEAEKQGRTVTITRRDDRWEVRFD

Variants of: B1
Assay: folding stability dG (cDNA display proteolysis); higher = more stable
Conditions: PBS, room temperature

Here is how some variants turned out for folding stability dG.
F39L    2.74 kcal/mol
E11H    1.61 kcal/mol
Q16Y    2.83 kcal/mol
T29Y    2.21 kcal/mol
T5L    3.46 kcal/mol

query: Tell me folding stability dG reported for S8R
result: 2.12 kcal/mol

query: Determine its reported folding stability dG: K21H
result: 2.82 kcal/mol

query: Name the recorded folding stability dG of the variant listed here: I28R
result: 1.31 kcal/mol

query: Determine from records and report folding stability dG for G23D
result: 1.39 kcal/mol

query: Please indicate folding stability dG recorded for S8Y
result: 1.64 kcal/mol

query: Report folding stability dG, nothing else, for this variant: T3Q
result: 2.46 kcal/mol

query: Quick one: give measured folding stability dG for K14S
result: 2.89 kcal/mol

query: For the variant T1R , report folding stability dG.
result: 2.81 kcal/mol

Reference source: the MegaScale stability set (Tsuboyama et al. 2023)
